# System: Caco-2
# experiment: cell viability relative to DMSO; higher = less toxic
# settings: 72 h; 1000 nM
measured property: cell viability (%)
Numbers only, in %.

Answered examples (3):
CNCCC=C1c2ccccc2C=Cc2ccccc21	102
CCCCCCCCCCCCCCCCNc1ccc(C(=O)O)cc1	93.7
COc1cc(O)c(C(=O)c2ccccc2)cc1S(=O)(=O)O	91.8

// each listed compound needs a value for cell viability
1. CN(c1nccc(=O)[nH]1)C1CCN(c2nc3ccccc3n2Cc2ccc(F)cc2)CC1
2. O=C1NCCNC1c1cccs1 (centres undefined)
3. CCCCCCCCCCCCCCCCO

**Result**
1. 100
2. 97.5
3. 96.6

// each listed compound needs a value for cell viability
1. Clc1ccc(COC(Cn2ccnc2)c2ccc(Cl)cc2Cl)cc1 (centres undefined)
2. CCN(CC)CCN[C@@H](C(=O)OCCC(C)C)c1ccccc1 [camylofine-chlorhydrate]
3. O=C(CNC(=O)c1ccc(Cl)cc1)NO
4. COc1cc(N2CCOCC2)ccc1Nc1ncc(Cl)c(Nc2ccccc2NS(C)(=O)=O)n1
5. Cn1nnc(-c2ccc(-c3ccc(N4C[C@H](CO)OC4=O)cc3F)cn2)n1
6. O=C(O)CCc1nc(-c2ccccc2)c(-c2ccccc2)o1
7. CC1Sc2c(C(=O)O)c(=O)c3cc(F)c(N4CCNCC4)cc3n21 (centres undefined)
8. CCOc1ccccc1OCC1CNCCO1 (centres undefined)

**Result**
[90.9, 100, 98.5, 80.8, 93.3, 108, 108, 118]

// each listed compound needs a value for cell viability
1. c1ccc2c(Oc3nc(Nc4ccc(N5CCOCC5)cc4)c4ncn(C5CCCCC5)c4n3)cccc2c1
2. C[C@@H]1O[C@@H](O[C@@H]2[C@@H](O)[C@H](OCCc3ccc(O)c(O)c3)O[C@H](CO)[C@H]2OC(=O)/C=C/c2ccc(O)c(O)c2)[C@H](O)[C@H](O)[C@H]1O [verbascoside]
3. CC[C@]12CCCN3CCc4c(n(c5ccccc45)[C@@](O)(C(=O)OC)C1)[C@@H]32
4. C[n+]1ccc(C(=O)NCc2ccccc2)cc1 [enisamium-iodide]
5. O=c1[nH]c(=O)n([C@H]2C[C@H](O)[C@@H](CO)O2)cc1I

**Result**
98.7
99.8
101
94.5
105

---

# Test system: Vero E6
# experiment: cell viability relative to DMSO; higher = less toxic
# settings: 72 h; 1 nM
Give measured cell viability for each item. Keep answers brief.
Answers are plain numbers, in %.

Answered examples (8):
c1ccc2c(Oc3nc(Nc4ccc(N5CCOCC5)cc4)c4ncn(C5CCCCC5)c4n3)cccc2c1 [purmorphamine]	99.2
CN(c1nccc(=O)[nH]1)C1CCN(c2nc3ccccc3n2Cc2ccc(F)cc2)CC1 [mizolastine]	97.5
CCOc1ccccc1OCC1CNCCO1 (centres undefined) [viloxazine]	96.4
O=C(NC1CCNCC1)[C@@H]1CC[C@@H]2CN1C(=O)N2OS(=O)(=O)O [relebactam]	99.1
CCn1nc(C2CCN(C(=O)CCO)CC2)nc1-c1cnc(N)c(-c2nnc(C(C)(C)C)o2)n1 [AZD8835]	96.9
COc1cc(Br)c(Nc2nc(-c3c(C)nc4ncccn34)cs2)c(Br)c1 [PTC-209]	99.3
CCCN(CCC)CCc1cccc2c1CC(=O)N2 [ropinirole]	100
COc1cc(SC)ccc1C(=O)N1CCC(Cc2ccccc2)CC1 [JX-401]	101

Would you kindly look at the next entry?
**Query** For the molecule O=C(NOCC(O)CO)c1cc(Br)c(F)c(F)c1Nc1ccc(I)cc1F (centres undefined) , what cell viability is on record?
**Result** 93.8

---

# Tested on: U2OS
# experiment: cell viability relative to DMSO; higher = less toxic
# settings: 72 h; 1 nM
measured property: cell viability (%)
One number for each entry, in %.

Answered examples (2):
CN(Cc1ccccc1)C(=O)[C@H](Cc1ccc2ccccc2c1)NC(=O)[C@@H]1CCCN1C(=O)Nc1ccccc1[N+](=O)[O-]	105
CN1C2C=C(c3sccc3Br)CC1CC2 (centres undefined)	97.6

// each listed molecule needs a value for cell viability
1. C[C@@H]1Cc2c([nH]c3ccccc23)[C@@H](c2c(F)cc(/C=C/C(=O)O)cc2F)N1CC(C)(C)F
2. CN(CCOc1ccc(CC2SC(=O)NC2=O)cc1)c1ccccn1 (centres undefined)
3. C[N+](C)(C)NCCC(=O)O
4. CCOC(=O)c1c[nH]cn1
5. CC(=O)Nc1cccc(-n2c(=O)n(C3CC3)c(=O)c3c(Nc4ccc(I)cc4F)n(C)c(=O)c(C)c32)c1
6. Cc1cccn2c(=O)c(/C=C(\C#N)c3nc4ccccc4s3)c(Oc3ccc(F)cc3)nc12
7. CN1[C@@H]2C[C@@H](O)C[C@H]1[C@@H]1O[C@@H]12

**Result**
1. 98.8
2. 96.7
3. 102
4. 100
5. 99.3
6. 98.3
7. 98.4

---

# System: Calu-3
# experiment: cell viability relative to DMSO; higher = less toxic
# settings: 72 h; 10 nM
Give measured cell viability for each item. Keep answers brief.
One number for each entry, in %.

Answered examples (4):
CC1=C(/C=C/C(C)=C/C=C/C(C)=C/C=O)C(C)(C)CCC1 [retinaldehyde]	108
CCCCc1cc2ccccc2c(OCCN(C)C)n1 [dimethisoquin]	97.7
Nc1c(-c2cccc(C(F)(F)F)c2)nsc1C(=O)O [amflutizole]	94.1
Cc1cc(CC(C)CC(C)(C)C)n(O)c(=O)c1 (stereo not given) [piroctone-olamine]	97.1

Would you kindly look at the next entry?
**Query** For the compound CC#CC(=O)N1CCC[C@H]1c1nc(-c2ccc(C(=O)Nc3ccccn3)cc2)c2c(N)nccn12 [acalabrutinib] , what cell viability is on record?
**Result** 89.1

---

Give measured cell viability for each item. Keep answers brief.
# System: Caco-2
# experiment: cell viability relative to DMSO; higher = less toxic
# settings: 72 h; 1 nM
Answers are plain numbers, in %.

Answered examples (6):
C[C@@H]1Cc2c([nH]c3ccccc23)[C@@H](c2c(F)cc(/C=C/C(=O)O)cc2F)N1CC(C)(C)F	94.2
O=c1[nH]c(=O)n([C@H]2C[C@H](O)[C@@H](CO)O2)cc1I	101
CC(C)NC[C@@H](O)c1ccc(O)c(O)c1 (racemic)	96.5
COC(=O)[C@@H]1C[C@H](OC(C)=O)C(=O)[C@H]2[C@@]1(C)CC[C@H]1C(=O)O[C@H](c3ccoc3)C[C@]21C	112
CN(Cc1ccccc1)C(=O)[C@H](Cc1ccc2ccccc2c1)NC(=O)[C@@H]1CCCN1C(=O)Nc1ccccc1[N+](=O)[O-]	96.3
CC(/C=C/C(=O)NO)=C\[C@@H](C)C(=O)c1ccc(N(C)C)cc1	97.3

**Query** For the compound N#Cc1c(N)nc(SCc2csc(-c3ccc(Cl)cc3)n2)c(C#N)c1-c1ccc(OCCO)cc1 , what cell viability is on record?
**Result** 102

---

Give measured cell viability for each item. Keep answers brief.
# System: Caco-2
# experiment: cell viability relative to DMSO; higher = less toxic
# settings: 72 h; 1 nM
Report as: number unit

// each listed molecule needs a value for cell viability
1. COC(=O)Nc1ccc2[nH]cc(CCNC(C)=O)c2c1
2. O=C(N[C@@H]1Cc2ccccc2N(C[C@@H](O)CO)C1=O)c1cc2cc(Cl)sc2[nH]1
3. CCCNC(=O)NS(=O)(=O)c1ccc(Cl)cc1 [chlorpropamide]
4. O=C(OCC(O)CO)c1ccccc1Nc1ccnc2c(C(F)(F)F)cccc12 (stereo unspecified)
5. Clc1cccc(-c2nnnn2Cc2cccnc2)c1Cl
6. COc1ccc(NS(=O)(=O)c2sc3ccc(Cl)cc3c2C)cc1N1CCNCC1
7. CCCCCCNC(=O)n1cc(F)c(=O)[nH]c1=O
8. COC(=O)c1ccccc1NC(=O)c1ccc(F)cc1 [EXO-1]

**Result**
1. 96.3%
2. 101%
3. 92.6%
4. 92.2%
5. 97.6%
6. 98.9%
7. 106%
8. 99.5%

// each listed molecule needs a value for cell viability
1. CC(C)[C@@H]1CC[C@@H](C)C[C@H]1O
2. CCn1c(-c2nonc2N)nc2cncc(CNC3CCNCC3)c21
3. N#CCC(=O)c1ccccc1

**Result**
93.3%
93.6%
106%

---

# Test system: Vero E6
# experiment: cell viability relative to DMSO; higher = less toxic
# settings: 72 h; 10 nM
measured property: cell viability (%)
Give bare numbers, in %.

Answered examples (3):
CCCCCCCCCCCCCCCCNc1ccc(C(=O)O)cc1	99.2
CC#CC(=O)N1CCC[C@H]1c1nc(-c2ccc(C(=O)Nc3ccccn3)cc2)c2c(N)nccn12	99.7
C[C@@H]1O[C@@H](O[C@@H]2[C@@H](O)[C@H](OCCc3ccc(O)c(O)c3)O[C@H](CO)[C@H]2OC(=O)/C=C/c2ccc(O)c(O)c2)[C@H](O)[C@H](O)[C@H]1O [verbascoside]	99.8

// each listed compound needs a value for cell viability
1. COc1cc(N)c(Cl)cc1C(=O)NC1CCN(Cc2ccccc2)CC1 [clebopride]
2. CC(=O)Nc1cccc2c1c(Sc1ccc(Cl)cc1)c(C)n2CC(=O)O
3. C[C@H](/C=C/[C@H](C)C(C)(C)O)[C@H]1CC[C@H]2/C(=C/C=C3C[C@@H](O)C[C@H](O)C3)CCC[C@]12C
4. CCCCCCCCCCCCCCCCO

**Result**
104
98.1
97.3
97.3

// each listed compound needs a value for cell viability
1. CCN1C(=O)CNc2ncc(-c3ccc(-c4nc[nH]n4)nc3C)nc21
2. O=C(O)c1cc(O)c2ccc(Cl)cc2n1
3. c1ccc(CCCN2CCN(CCOC(c3ccccc3)c3ccccc3)CC2)cc1
4. O=C1NCCNC1c1cccs1 (configuration not stated)
5. O=c1cccc2n1C[C@@H]1CNC[C@H]2C1
6. O=C1CN=C(c2cccc(Br)c2)c2oc3ccccc3c2N1
7. CCn1nc(C2CCN(C(=O)CCO)CC2)nc1-c1cnc(N)c(-c2nnc(C(C)(C)C)o2)n1

**Result**
1. 103
2. 102
3. 104
4. 103
5. 98.6
6. 92.8
7. 97.9
